Provide the reported FACS Cell Binding (Fold Above Background) of each item.
tested_on: T1, mouse PRLR construct with an HA tag on HEK293/mPRLR cells (mouse, UniProt Q08501 20-608)
T1 construct: whole, on cells; stably transfected into HEK293
T1 sequence (looked up): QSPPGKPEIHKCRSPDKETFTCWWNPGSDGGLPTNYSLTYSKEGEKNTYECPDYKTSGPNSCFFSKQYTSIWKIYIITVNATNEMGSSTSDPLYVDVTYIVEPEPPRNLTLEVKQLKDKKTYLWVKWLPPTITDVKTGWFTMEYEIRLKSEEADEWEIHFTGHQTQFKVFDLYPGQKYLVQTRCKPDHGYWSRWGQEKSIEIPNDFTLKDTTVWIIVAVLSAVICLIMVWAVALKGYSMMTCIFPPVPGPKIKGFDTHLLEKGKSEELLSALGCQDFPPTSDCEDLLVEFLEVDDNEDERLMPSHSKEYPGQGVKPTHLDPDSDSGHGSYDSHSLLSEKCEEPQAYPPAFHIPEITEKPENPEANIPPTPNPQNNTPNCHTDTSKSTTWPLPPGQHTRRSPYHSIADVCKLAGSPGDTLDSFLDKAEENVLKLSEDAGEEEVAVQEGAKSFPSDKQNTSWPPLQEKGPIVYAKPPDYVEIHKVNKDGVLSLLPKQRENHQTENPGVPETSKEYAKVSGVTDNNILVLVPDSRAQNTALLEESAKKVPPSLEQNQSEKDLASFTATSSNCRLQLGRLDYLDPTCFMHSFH
assay_text: FACS on HEK293/mPRLR cells
Respond numerically; units are fold and should not be typed.

Lookup result for H1H6765P (antibody, human IgG1, V domains shown, human IgG1 Fc (H1H)) VH: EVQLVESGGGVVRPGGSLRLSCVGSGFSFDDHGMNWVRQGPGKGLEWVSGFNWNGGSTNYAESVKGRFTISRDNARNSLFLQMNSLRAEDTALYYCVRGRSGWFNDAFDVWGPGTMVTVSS VL: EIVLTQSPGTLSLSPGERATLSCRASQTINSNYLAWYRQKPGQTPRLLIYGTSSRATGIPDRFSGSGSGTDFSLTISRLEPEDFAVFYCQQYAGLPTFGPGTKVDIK ; measured FACS Cell Binding (Fold Above Background): 1

Lookup result for H1H6797P (antibody, human IgG1, V domains shown, human IgG1 Fc (H1H)) VH: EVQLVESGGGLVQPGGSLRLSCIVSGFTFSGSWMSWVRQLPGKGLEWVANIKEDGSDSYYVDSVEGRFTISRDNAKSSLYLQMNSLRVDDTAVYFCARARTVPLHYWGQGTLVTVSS VL: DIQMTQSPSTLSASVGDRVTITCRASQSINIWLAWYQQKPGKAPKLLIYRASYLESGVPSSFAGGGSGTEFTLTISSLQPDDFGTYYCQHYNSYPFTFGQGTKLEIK ; measured FACS Cell Binding (Fold Above Background): 2

Lookup result for H1H6782P (antibody, human IgG1, V domains shown, human IgG1 Fc (H1H)) VH: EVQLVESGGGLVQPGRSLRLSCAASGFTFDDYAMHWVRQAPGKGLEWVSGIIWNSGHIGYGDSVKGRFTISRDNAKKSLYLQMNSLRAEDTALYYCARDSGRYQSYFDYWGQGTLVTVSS VL: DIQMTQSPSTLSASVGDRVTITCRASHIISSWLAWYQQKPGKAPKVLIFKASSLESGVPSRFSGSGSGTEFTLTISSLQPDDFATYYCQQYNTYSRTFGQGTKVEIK ; measured FACS Cell Binding (Fold Above Background): 4

Lookup result for H1H6774P (antibody, human IgG1, V domains shown, human IgG1 Fc (H1H)) VH: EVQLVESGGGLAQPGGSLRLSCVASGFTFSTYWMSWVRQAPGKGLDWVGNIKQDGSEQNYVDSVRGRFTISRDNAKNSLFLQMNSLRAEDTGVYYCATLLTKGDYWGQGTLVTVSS VL: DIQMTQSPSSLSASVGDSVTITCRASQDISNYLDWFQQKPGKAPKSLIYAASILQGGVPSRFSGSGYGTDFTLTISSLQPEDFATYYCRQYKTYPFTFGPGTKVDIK ; measured FACS Cell Binding (Fold Above Background): 1

Lookup result for H1H6781P (antibody, human IgG1, V domains shown, human IgG1 Fc (H1H)) VH: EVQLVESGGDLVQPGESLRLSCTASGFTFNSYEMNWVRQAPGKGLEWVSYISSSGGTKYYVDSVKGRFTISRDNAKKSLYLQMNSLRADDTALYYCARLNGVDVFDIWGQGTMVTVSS VL: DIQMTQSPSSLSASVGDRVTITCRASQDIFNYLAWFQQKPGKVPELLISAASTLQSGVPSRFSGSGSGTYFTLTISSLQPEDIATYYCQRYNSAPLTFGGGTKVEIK ; measured FACS Cell Binding (Fold Above Background): 1

Numbers sourced from patent US20180185504A1.
